REPORTED_CONDITIONS: 328.15 K; 100 kPa; Liquid; Concentric cylinders viscometry
MEASUREMENT_KIND: log10 viscosity (log10 of the value in mPa·s)

>  <COMPOUND>
CCCC[N+](CCCC)(CCCC)CCCC.O=S(=O)([O-])CCN(CCO)CCO

>  <log10 viscosity>
3.52

$$$$
>  <COMPOUND>
CCCC[N+](CCCC)(CCCC)CCCC.O=S(=O)([O-])CC(O)CNC1CCCCC1

>  <log10 viscosity>
3.66

$$$$
>  <COMPOUND>
CCCC[N+](CCCC)(CCCC)CCCC.O=S(=O)([O-])CC(O)CN1CCOCC1 [tetrabutylammonium 2-hydroxy-3-morpholinopropanesulfonate]

>  <log10 viscosity>
3.60

$$$$
>  <COMPOUND>
CCCC[P+](CCCC)(CCCC)CCCC.O=S(=O)([O-])CC(O)CNC1CCCCC1

>  <log10 viscosity>
2.89

$$$$
>  <COMPOUND>
C[N+](C)(C)CCO.O=S(=O)([O-])CCN(CCO)CCO

>  <log10 viscosity>
3.31

$$$$
>  <COMPOUND>
C[N+](C)(C)CCO.O=S(=O)([O-])CC(O)CN1CCOCC1 (centres undefined)

>  <log10 viscosity>
3.84

$$$$
>  <COMPOUND>
C[N+](C)(C)CCO.O=S(=O)([O-])CC(O)CNC(CO)(CO)CO (centres undefined)

>  <log10 viscosity>
4.75

$$$$
>  <COMPOUND>
CCCC[P+](CCCC)(CCCC)CCCC.O=S(=O)([O-])CC(O)CN1CCOCC1 [tetrabutylphosphonium 2-hydroxy-3-morpholinopropanesulfonate]

>  <log10 viscosity>
2.80

$$$$
>  <COMPOUND>
CCCC[P+](CCCC)(CCCC)CCCC.O=S(=O)([O-])CCN(CCO)CCO

>  <log10 viscosity>
2.94

$$$$

* * *

REPORTED_CONDITIONS: 338.15 K; 100 kPa; Liquid; Concentric cylinders viscometry

>  <COMPOUND>
C[N+](C)(C)CCO.O=S(=O)([O-])CCN(CCO)CCO

>  <viscosity (mPa·s)>
1136.6

$$$$
>  <COMPOUND>
C[N+](C)(C)CCO.O=S(=O)([O-])CC(O)CN1CCOCC1 (centres undefined)

>  <viscosity (mPa·s)>
3099.4

$$$$
>  <COMPOUND>
CCCC[P+](CCCC)(CCCC)CCCC.O=S(=O)([O-])CC(O)CN1CCOCC1 [tetrabutylphosphonium 2-hydroxy-3-morpholinopropanesulfonate]

>  <viscosity (mPa·s)>
339.2

$$$$
>  <COMPOUND>
CCCC[N+](CCCC)(CCCC)CCCC.O=S(=O)([O-])CC(O)CNC1CCCCC1

>  <viscosity (mPa·s)>
1926.8

$$$$
>  <COMPOUND>
CCCC[P+](CCCC)(CCCC)CCCC.O=S(=O)([O-])CCN(CCO)CCO

>  <viscosity (mPa·s)>
458.9

$$$$
>  <COMPOUND>
CCCC[P+](CCCC)(CCCC)CCCC.O=S(=O)([O-])CC(O)CNC1CCCCC1

>  <viscosity (mPa·s)>
409

$$$$
>  <COMPOUND>
CCCC[N+](CCCC)(CCCC)CCCC.O=S(=O)([O-])CCN(CCO)CCO

>  <viscosity (mPa·s)>
1621.8

$$$$
>  <COMPOUND>
CCCC[N+](CCCC)(CCCC)CCCC.O=S(=O)([O-])CC(O)CN1CCOCC1 [tetrabutylammonium 2-hydroxy-3-morpholinopropanesulfonate]

>  <viscosity (mPa·s)>
1702.9

$$$$
>  <COMPOUND>
C[N+](C)(C)CCO.O=S(=O)([O-])CC(O)CNC(CO)(CO)CO (centres undefined)

>  <viscosity (mPa·s)>
21501

$$$$
